# Tested on: HIF-2α HIS TAG-PASB Domain
# assayMethodText: HIF-2α Scintillation Proximity Assay (SPA)
# Format: binding
measuredParameter: log10 of IC50 (log10 of the value in nM)
Transform log10 | Measure IC50 | Unit nM

Example entries begin here.
>>> numericresult("CCS(=O)(=O)c1ccc(Oc2cc(F)cc(C#N)c2)c2c1C(O)CC2 (centres unmarked) [Compound 205]")
3.38
>>> numericresult("NS(=O)(=O)c1ccc(Oc2cc(F)cc(F)c2)c2c1C(O)CC2 (centres unmarked) [Compound 257]")
3.28
>>> numericresult("N#Cc1cncc(Oc2ccc(S(=O)(=O)CF)c3c2[C@@H](F)C(F)(F)[C@H]3O)c1 [Compound 344]")
0.83

Query :: Value lookup for log10 of IC50; key = O=[N+]([O-])c1c(Oc2cccc(Cl)c2)ccc(C(F)(F)F)c1Cl [Compound 204]
Result :: 2.32

Query :: Can you share its log10 of IC50? I mean this molecule: Cc1ccc(Cl)cc1Oc1ccc(S(=O)(=O)C(F)(F)F)cc1Br [Compound 174]
Result :: 3.08

---

# System: HIF-2α HIS TAG-PASB Domain
# assayMethodText: HIF-2α Scintillation Proximity Assay (SPA)
# Type: binding
# Method: The percent inhibition was determined and IC50 values were calculated using the Dotmatics system based on the following equation: % inhibition=[(high control−sample)/(high control−low control)]×100.
Criterion: IC50 strictly under 400 nM. Met: true (1). Not met: false (0).

Some solved entries appear below for comparison.
>>> class("CS(=O)(=NC#N)c1ccc(Oc2cc(F)cc(C#N)c2)c2c1[C@H](O)C(F)(F)[C@@H]2F (single isomer, unassigned) [Example 316]")
"true (1)"
>>> class("O=S(=O)(c1ccc(Oc2cc(F)cc(F)c2)c2c1CCC2)C(F)F")
"false (0)"
>>> class("N#Cc1cncc(Oc2ccc(S(=O)(=O)CF)c3c2[C@H](F)C(F)(F)[C@H]3O)c1")
"false (0)"
>>> class("Cc1c(S(C)(=O)=O)ccc(Oc2cc(F)cc(C#N)c2)c1C#N")
"false (0)"
>>> class("CS(=O)(=O)c1ccc(Oc2cc(F)cc(C#N)c2)c2c1[C@H](O)C(F)(F)[C@@H]2F")
"true (1)"

Query :: Decide: IC50 of CS(=O)(=NC#N)c1ccc(Oc2cc(F)cc(C#N)c2)c2c1[C@H](O)C(F)(F)[C@@H]2F (single isomer, unassigned) [Example 317] strictly below 400 nM?
Result :: true (1)

Query :: IC50 strictly < 400 nM for this molecule? O=C1c2c(S(=O)(=O)C(F)F)ccc(Oc3cncc(Cl)c3)c2CC1(F)F
Result :: true (1)

Query :: Does CS(=O)(=O)c1ccc(Oc2ccc(F)c(C#N)c2)c2c1[C@H](O)C(F)(F)[C@@H]2F have IC50 strictly under 400 nM?
Result :: true (1)

Query :: Please let me know if N#Cc1cncc(Oc2ccc(S(=O)(=O)C(F)F)c3c2CC[C@H]3O)c1 shows IC50 below 400 nM.
Result :: false (0)

---

# Test system: HIF-2α HIS TAG-PASB Domain
# assayMethodText: HIF-2α Scintillation Proximity Assay (SPA)
# Type: binding
Reported IC50 is given for each of the following molecules.
Note: unit µM is implicit; provide only the numeric part.

>>> numericresult("N#Cc1cc(F)cc(Oc2ccc(S(=O)(=O)C(F)F)cc2C#N)c1 [Compound 134]")
0.45
>>> numericresult("N#Cc1cc(F)cc(Oc2ccc(Br)c3c2C(F)(F)C(F)(F)C3)c1 [Compound 248]")
17
>>> numericresult("COC(=O)c1cc(S(=O)(=O)C(F)(F)F)ccc1Oc1cc(F)cc(Cl)c1 [Compound 121]")
16
>>> numericresult("CS(=O)(=O)c1ccc(Oc2cc(F)cc(F)c2)c(C(F)F)c1C#N [Compound 93]")
0.17
>>> numericresult("COC(=O)c1c([S+]([O-])C(F)F)ccc(Oc2cc(F)cc(Cl)c2)c1Br (stereo not shown) [Compound 82]")
15

Query :: Entry under review: O=S(=O)(c1ccc(Oc2cc(F)cc(Cl)c2)c(Br)c1CO)C(F)(F)F [Compound 102] . Reported IC50?
Result :: 0.12

Query :: Entry CS(=O)(=NC#N)c1ccc(Oc2cc(F)cc(C#N)c2)c2c1C(O)CC2 (stereo not shown) [Compound 68] has what IC50?
Result :: 3.1

Query :: Requested read-out: IC50. Entry: Cc1c(Oc2cc(F)cc(C#N)c2)ccc(S(=O)(=O)C(F)(F)F)c1/C=C/c1nnco1 [Compound 150]
Result :: 1.3

Query :: I would be grateful if you could share the reported IC50 for N#Cc1cc(F)cc(Oc2ccc(S(=O)(=O)C(F)(F)F)c3c2CC(F)(F)[C@H]3NCCO)c1 [Compound 291] .
Result :: 4.9

Query :: Reported IC50 for O=S(=O)(c1cc(C(F)(F)F)ccc1Oc1cc(F)cc(Cl)c1)C(F)(F)F [Compound 129] : what is it?
Result :: 2.2

Query :: Quick one: IC50 for N#Cc1cc(F)cc(Oc2ccc(S(N)(=O)=O)c3c2C[C@@H](F)[C@H]3O)c1 [Compound 334] ?
Result :: 0.073

Query :: If you can, please state the reported IC50 value of C=CS(=O)(=O)c1ccc(Oc2cc(F)cc(Cl)c2)c(Br)c1 [Compound 130] .
Result :: 5.5

Query :: Look up IC50: CS(=O)(=O)c1ccc(Oc2cc(F)cc(C#N)c2)c2c1[C@H](N)C(F)(F)[C@@H]2F [Compound 346]
Result :: 0.515

Query :: Quick one: IC50 of O=S(=O)(c1ccc(Oc2cncc(Cl)c2)c2c1[C@H](O)CC2)C(F)F [Compound 3] ?
Result :: 0.34

Query :: Which value of IC50 has been reported for N#Cc1cncc(Oc2ccc(C(F)(F)F)c3c2CC(F)(F)[C@H]3O)c1 [Example 303] in the records?
Result :: 0.037

---

Below, each entry is listed alongside its reported IC50.
# Test system: HIF-2α HIS TAG-PASB Domain
# assayMethodText: HIF-2α Scintillation Proximity Assay (SPA)
# Format: binding
Provide the reading as a plain figure in nM.

Here's what some known entries look like.
>>> numericresult("N#CCS(=O)(=O)c1ccc(Oc2cc(F)cc(F)c2)c2c1C(O)CC2 (stereo not shown)")
5200
>>> numericresult("N#Cc1cc(Oc2ccc(S(=O)(=O)C(F)(F)F)c3c2CCC3O)ccc1F (stereo not shown)")
2700
>>> numericresult("C/C=C/c1c(S(=O)(=O)C(F)F)ccc(Oc2cc(F)cc(C#N)c2)c1C#N")
920

Query :: Param item = CS(=O)(=O)c1ccc(Oc2cc(F)cc(C#N)c2)c2c1[C@H](O)C(F)(Cl)C2 (stereo partly shown) ; retrieve measured IC50.
Result :: 97

Query :: What does the record list as IC50 for CS(=O)(=O)c1ccc(Oc2cc(F)cc(C#N)c2)c(C(F)F)c1C#N ?
Result :: 130

Query :: Entry Cc1c(S(=O)(=O)C(F)F)ccc(Oc2cc(F)cc(C#N)c2)c1C#N : reported IC50 = ?
Result :: 157

---

# System: HIF-2α HIS TAG-PASB Domain
# assayMethodText: HIF-2α Scintillation Proximity Assay (SPA)
# Type: binding
Please assign not fulfilled whenever IC50 is at or above 0.2 µM, and fulfilled whenever it is below.

Sample answers from the record:
>>> class("N#Cc1cc(F)cc(Oc2ccc(S(=N)(=O)C(F)(F)F)c3c2CCC3O)c1 (stereo not shown) [Compound 259]")
"not fulfilled"
>>> class("CC(=O)c1c(S(=O)(=O)C(F)(F)F)ccc(Oc2cc(F)cc(C#N)c2)c1C#N [Compound 79]")
"not fulfilled"
>>> class("O=C1c2c(S(=O)(=O)C(F)F)ccc(Oc3ccc(F)c(Br)c3)c2CC1(F)F [Compound 193]")
"not fulfilled"

Query :: Hello, is IC50 of the following molecule strictly smaller than 0.2 µM? Cc1c(Oc2cc(F)cc(C#N)c2)ccc(S(=O)(=O)C(F)(F)F)c1Br [Compound 141]
Result :: fulfilled

Query :: Problem: For the molecule N#Cc1c(S(=O)(=O)C(F)F)ccc(Oc2cc(F)cc(Cl)c2)c1Br [Compound 76] , is IC50 under 0.2 µM?
Result :: not fulfilled

Query :: In the record for NS(=O)(=O)c1ccc(Oc2cncc(F)c2)c2c1[C@H](O)C(F)(F)[C@@H]2F [Compound 341] , is IC50 less than 0.2 µM?
Result :: fulfilled

Query :: Confirm or reject: IC50 of N#Cc1cc(F)cc(Oc2ccc(S(=O)(=O)C(F)(F)F)cc2Br)c1 [Compound 118] lies strictly below 0.2 µM
Result :: fulfilled

Query :: Consider CS(=O)(=O)c1ccc(Oc2cncc(Cl)c2)c2c1[C@H](O)C(F)(F)C2 [Example 115] . Does its IC50 lie strictly below 0.2 µM?
Result :: not fulfilled

Query :: Could you please tell me whether IC50 recorded for CS(=O)(=O)c1ccc(Oc2cncc(Br)c2)c2c1C(=O)C(F)(F)C2 [Compound 323] is less than 0.2 µM?
Result :: not fulfilled

Query :: Threshold test, IC50 < 0.2 µM: N#Cc1cc(F)cc(Oc2ccc(S(=O)(=O)C(F)(F)F)c(C#N)c2Br)c1 [Compound 100]
Result :: fulfilled

Query :: # check: IC50 < 0.2 µM for CC(=O)NCc1c(S(=O)(=O)C(F)F)ccc(Oc2cc(F)cc(Cl)c2)c1Br [Compound 86]
Result :: not fulfilled

Query :: Is IC50 of CS(=O)(=NC#N)c1ccc(Oc2cc(F)cc(C#N)c2)c2c1[C@H](O)C(F)(F)C2 (single isomer, unassigned) [Example 245] strictly below 0.2 µM?
Result :: fulfilled

Query :: I wonder whether O=S(=O)(c1ccc(Oc2cc(Cl)ccc2F)c(Br)c1)C(F)(F)F [Compound 170] has IC50 below 0.2 µM. Can you tell?
Result :: not fulfilled

Query :: A record lists N#Cc1cncc(Oc2ccc(S(=O)(=O)C(F)(F)F)c3c2CCC3O)c1 (stereo not shown) [Compound 220] . Is its IC50 below 0.2 µM?
Result :: not fulfilled

Query :: Please check: IC50 for N#Cc1cncc(Oc2ccc(S(N)(=O)=O)c3c2[C@@H](F)C(F)(F)[C@H]3O)c1 [Compound 340] , strictly under 0.2 µM or not?
Result :: fulfilled

Query :: A record lists Cc1c(S(C)(=O)=O)ccc(Oc2cc(F)cc(Cl)c2)c1C(F)F [Compound 53] . Is its IC50 below 0.2 µM?
Result :: not fulfilled
